system: SK-N-MM (SKNMM-MYCN, doxycycline-inducible MYCN); test: area under dose-response curve (CellTiter-Glo viability normalised to plate controls) (AUC (arbitrary units)); higher = more loss of viability; extreme values may be limits of the assay; details: MYCN induction (doxycycline): no doxycycline (MYCN not induced); time after drugging: 8 days
result type: area under dose-response curve

As a guide, the following entries are already answered.
Input: Reported area under dose-response curve for Cc1[nH]c2ccccc2c1CCNCc1ccc(/C=C/C(=O)NO)cc1 [PANOBINOSTAT] : what is it?
Output: 287

Input: Try the compound O=C(c1cc(Cc2n[nH]c(=O)c3ccccc23)ccc1F)N1CCN(C(=O)C2CC2)CC1 [OLAPARIB]
Output: 0

Input: Note, next up: CC1(C)CCC(CN2CCN(c3ccc(C(=O)NS(=O)(=O)c4ccc(NCC5CCOCC5)c([N+](=O)[O-])c4)c(Oc4cnc5[nH]ccc5c4)c3)CC2)=C(c2ccc(Cl)cc2)C1 [VENETOCLAX]
Output: 0

Input: Try this compound next: CCc1nc(N)nc(N)c1-c1ccc(Cl)cc1 [PYRIMETHAMINE]
Output: 22.1

Input: Repeat for the following compound: Nc1cc(C(F)(F)F)c(-c2cc(N3CCOCC3)nc(N3CCOCC3)n2)cn1 [BUPARLISIB]
Output: 86.9

Input: Ok, now Cc1c2oc3c(C)ccc(C(=O)N[C@@H]4C(=O)N[C@H](C(C)C)C(=O)N5CCC[C@H]5C(=O)N(C)CC(=O)N(C)[C@@H](C(C)C)C(=O)O[C@@H]4C)c3nc-2c(C(=O)N[C@@H]2C(=O)N[C@H](C(C)C)C(=O)N3CCC[C@H]3C(=O)N(C)CC(=O)N(C)[C@@H](C(C)C)C(=O)O[C@@H]2C)c(N)c1=O [DACTINOMYCIN]
Output: 210

Input: Next compound: Nc1nc(Cl)nc2c1ncn2[C@@H]1O[C@H](CO)[C@@H](O)[C@@H]1F [CLOFARABINE]
Output: 141

Input: Item: CON(C)C(=O)N1N=C(c2cc(F)ccc2F)S[C@@]1(CCCN)c1ccccc1 [ARRY-520]
Output: 154

Input: Same question, CC[C@@H]1C(=O)N(C)c2cnc(Nc3ccc(C(=O)N[C@H]4CC[C@H](N5CCN(CC6CC6)CC5)CC4)cc3OC)nc2N1C(C)C [VOLASERTIB] this time
Output: 75.2

Input: Consider next the compound N#CN=C(NCCCCCCOc1ccc(Cl)cc1)Nc1ccncc1 [GMX-1778] in the same way.
Output: 338

New cases:
Input: For the compound COc1cc(Nc2c(C#N)cnc3cc(OCCCN4CCN(C)CC4)c(OC)cc23)c(Cl)cc1Cl [BOSUTINIB] , what area under dose-response curve is on record?
Output: 0.202

Input: Then what about the compound CCC1=C[C@@H]2CN(C1)Cc1c([nH]c3ccccc13)[C@@](C(=O)OC)(c1cc3c(cc1OC)N(C)[C@H]1[C@@](O)(C(=O)OC)[C@H](OC(C)=O)[C@]4(CC)C=CCN5CC[C@]31[C@@H]54)C2 [VINORELBINE] ?
Output: 144

Input: Consider next the compound Nc1nc2[nH]cnc2c(=S)[nH]1 [THIOGUANINE] in the same way.
Output: 21.2

Input: Then this compound: CC(=O)OC[C@H]1O[C@@H]([S-])[C@H](OC(C)=O)[C@@H](OC(C)=O)[C@@H]1OC(C)=O.CCP(CC)CC.[Au+] [AURANOFIN]
Output: 208

Input: Try the compound C=CCn1c(=O)c2cnc(Nc3ccc(N4CCN(C)CC4)cc3)nc2n1-c1cccc(C(C)(C)O)n1 [MK-1775]
Output: 98.1
